compounds and their reported MIC without PB/MIC + PB
Tested on: A. baumannii A472
Test: MIC without and with sub-inhibitory polymyxin B (Example 4)
Assay type: cell-based, Acinetobacter baumannii
Conditions: A. baumannii A472; ratio, PB […]; 1st experiment
Give the figure by itself; no unit, no explanation.

C[C@H]1COc2c(N3CCN(C)CC3)c(F)cc3c(=O)c(C(=O)O)cn1c23 [Levofloxacin, reference compound]	4

Noted for Cc1c(-c2ccc(CN)cc2)c(F)cn2c(=O)c(C(=O)O)cc(C3CC3)c12 [Compound 6] : its MIC without PB/MIC + PB reads 16

Noted for Cc1c(-c2cc(Cl)c(N)c(Cl)c2)ccn2c(=O)c(C(=O)O)cc(C3CC3)c12 [Compound 3] : its MIC without PB/MIC + PB reads 64

Noted for Cc1c(-c2ccc(CN)c(F)c2)ccn2c(=O)c(C(=O)O)cc(C3CC3)c12 [Compound 4] : its MIC without PB/MIC + PB reads 4

Noted for Cc1c(-c2ccc(CN)cc2)ccn2c(=O)c(C(=O)O)cc(C3CC3)c12 [Compound 5] : its MIC without PB/MIC + PB reads 8

Noted for COc1c(N2C[C@@H]3CCCN[C@@H]3C2)c(F)cc2c(=O)c(C(=O)O)cn(C3CC3)c12 [Moxifloxacin] : its MIC without PB/MIC + PB reads 0.5

###

System: A. baumannii A387
Experiment: MIC without and with sub-inhibitory polymyxin B (Example 4)
Format: cell-based, Acinetobacter baumannii
Settings: A. baumannii A387; ratio, PB 0.06 μg/ml; 1st experiment
molecules and their reported MIC without PB/MIC + PB

Some entries whose results are on file:
Cc1c(-c2cc(Cl)c(N)c(Cl)c2)ccn2c(=O)c(C(=O)O)cc(C3CC3)c12	≥32
NCC[C@H](O)C(=O)N[C@@H]1C[C@H](N)[C@@H](O[C@H]2O[C@H](CN)[C@@H](O)[C@H](O)[C@H]2O)[C@H](O)[C@H]1O[C@H]1O[C@H](CO)[C@@H](O)[C@H](N)[C@H]1O [Amikacin, reference compound]	≥1
COc1c(N2C[C@@H]3CCCN[C@@H]3C2)c(F)cc2c(=O)c(C(=O)O)cn(C3CC3)c12	1

Next item in the queue.
Noted for `Cc1c(-c2cc(F)c(N)cc2F)ccn2c(=O)c(C(=O)O)cc(C3CC3)c12` : its MIC without PB/MIC + PB reads ≥16

###

molecules and their reported MBC
Test system: A. baumannii A472
Assay: Preliminary MBC without and with sub-inhibitory polymyxin B (Example 4)
Assay type: cell-based, Acinetobacter baumannii
Details: Acinetobacter baumannii, A472, read-out: MBC +[…] PB, A. baumannii A472; +[…] polymyxin B; preliminary MBC; 1st experiment
Form entry: value (µg/mL) — number only.

Some entries whose results are on file:
Cc1c(-c2ccc(CN)cc2)c(F)cn2c(=O)c(C(=O)O)cc(C3CC3)c12	0.5
Cc1c(-c2ccc(N)c(F)c2)c(F)cn2c(=O)c(C(=O)O)cc(C3CC3)c12	0.125
Cc1c(-c2ccc(CN)c(F)c2)ccn2c(=O)c(C(=O)O)cc(C3CC3)c12	1
Cc1c(-c2ccc(CN)cc2)ccn2c(=O)c(C(=O)O)cc(C3CC3)c12	1

Next item in the queue.
Noted for `Cc1c(-c2cc(Cl)c(N)c(Cl)c2)ccn2c(=O)c(C(=O)O)cc(C3CC3)c12` : its MBC reads 0.25

These data points were gathered from patent US20190105367A1.
